EXPERIMENT_DESCRIPTION: soluble on expression in E. coli; label from the status in PepcDB or PDB records
READOUT_NAME: soluble on expression in E. coli

ITEM_SEQUENCE	READOUT_NAME	RECORDED_VALUE
AKDAAFTVDGLSLTSKTNTVSTAISGMTFDLVAPSAAGATTTVTVATNTDGLKASLQSFVDSYNTLATLVTSLTKGSISDKGVFTAAALTGDATPRALLATIRDQLAGASSRAGLSALSQLGIKTQQSNGTLSLDTATFTAALNDKKLGSQIQTMFTGTGATNADGTVDGGLVARMSKALLPYTKADGVLASKTSSLTKVQTRIASDQDALDRRIESLTASLTKKYNAMDLVVGQLKATATSITSIFEAMNAQKNAS	soluble on expression in E. coli	not soluble
EAMFCDFPKINHGILYDEEKYKPFSQVPTGEVFYYSCEYNFVSPSKSFWTRITCAEEGWSPTPKCLRLCFFPFVENGHSESSGQTHLEGDTVQIICNTGYRLQNNENNISCVERGWSTPPKCRSTISAEKCGPPPPIDNGDITSFLLSVYAPGSSVEYQCQNLYQLEGNNQITCRNGQWSEPPKCLDPCVISQEIMEKYNIKLKWTNQQKLYSRTGDIVEFVCKSGYHPTKSHSFRAMCQNGKLVYPSCEEK	soluble on expression in E. coli	not soluble
MAGDPMTALKYLQAYPVALQQQVRQLIDEQRLGDYLSQRYPGRHAVQSDKALYSYALELKQEYLRNAPAIDKVLFDNRLDLTHRALGLHTTVSRVQGGKLKAKKEIRIASLFKEAAPEFLRMIVVHELAHFKESDHNKAFYKLCEHMLPGYHQLEFDLRVYLTWRDLQGKAGAPDLEHHHHHH	soluble on expression in E. coli	soluble
MGSDKIHHHHHHMLTTLAIGNYRSINHLVLPLSQLNLVTGANGSGKSNLYKALRLLAETAQGGVVEALAREGGLDSTWWAGPETSARMRRGEVPIQGQHPSEVRRLRLGFATEDLGFAITLGLPIPLPYPSAFMLDPEIKCEAIWGAGAYRPSSLLVERKNALVRAREGNRWAVLDQHADSGESFFNIVGRPRQAPEIGDLRAFINSWRFYDHFRIDRDAPCRQPQLGTRSPVLHHDGRNLASALQTIIEIGDVEDLEEALNDAFPGSRLEINAPPGGLFSVRLHQHGLLRPLEGAELSDGTLRYLLLMAALLTPRPPSLMVLNEPETSLHADLLPALARLIIRASRRSQVWVVSHSAPLINALAACDGCNVLELEKIQGQTQLRGVGLLDEPLWRWAD	soluble on expression in E. coli	not soluble
MSCINLPTVLPGSPSKTRGQIQVILGPMFSGKSTELMRRVRRFQIAQYKCLVIKYAKDTRYSSSFCTHDRNTMEALPACLLRDVAQEALGVAVIGIDEGQFFPDIMEFCEAMANAGKTVIVAALDGTFQRKPFGAILNLVPLAESVVKLTAVCMECFREAAYTKRLGTEKEVEVIGGADKYHSVCRLCYFKKASGQPAGPDNKENCPVPGKPGEAVAARKLFAPQQILQCSPAN	soluble on expression in E. coli	soluble

Lab note: next sequence to report on.
Item: `MSLKKSDATGGEVASAEPIAKIPAPAGKAWTETFSVTPDGGYLLGNPDAPIKLIEFGALSCSHCAEFSEKGFPKLRDEYIASGRVSYELRLFLLNALDMPAVLLATCGAPEAVIPLSEQFWAWQPNMFSNLQKDEAAFQQISNLPAEKRFAGIAQLGGLSEFFASRGIAAAQGATCLADTAKATRLATVNDQWGKEYDITGTPTFFLNGSKTGVATWAELEPMLQKAGAREGHHHHHH` | soluble on expression in E. coli: soluble
